B1: HDV Ribozyme (parent)
chain: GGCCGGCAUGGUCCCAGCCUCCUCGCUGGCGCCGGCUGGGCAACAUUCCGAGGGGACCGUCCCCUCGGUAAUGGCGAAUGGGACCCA

# Variants of: B1
# PROTOCOL_TEXT: self-cleavage, relative activity (ratio to wild type); higher = more cleavage; co-transcriptional
The following variants are shown together with reported self-cleavage values.
Answer with the value's number alone.

VARIANT_DESIGNATION: C24U C44U
PROPERTY_NAME: self-cleavage
RESULT: 0.434
//
VARIANT_DESIGNATION: C58A C66G
PROPERTY_NAME: self-cleavage
RESULT: 1.25
//
VARIANT_DESIGNATION: C14U A87U
PROPERTY_NAME: self-cleavage
RESULT: 1.08
//
VARIANT_DESIGNATION: G6U C21G
PROPERTY_NAME: self-cleavage
RESULT: 0.0361

We next turn to a different variant, shown below.
Documented self-cleavage of G1A A83C : 0.138
